Target: hCD38 Enzyme (Homo sapiens, UniProt P28907)
Construct: purchased Sino Biological Inc 10818-H08H
Sequence (P28907 43-300 limits assumed): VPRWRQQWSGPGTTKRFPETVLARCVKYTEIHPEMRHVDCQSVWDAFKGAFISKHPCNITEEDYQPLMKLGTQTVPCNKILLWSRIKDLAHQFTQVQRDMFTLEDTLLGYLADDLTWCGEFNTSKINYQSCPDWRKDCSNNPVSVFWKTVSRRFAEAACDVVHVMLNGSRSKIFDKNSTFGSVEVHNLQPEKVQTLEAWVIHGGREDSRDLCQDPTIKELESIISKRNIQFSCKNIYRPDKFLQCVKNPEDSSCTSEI
Test: CD38 hydrolase enzymatic assay
Type: biochemical
Conditions: rhCD38, ε-NAD substrate, 25° C., point reading time 20 mins; read-out: hCD38 Enzyme inhibition IC50
pIC50: −log10 of the molar value.
Metric: pIC50

Here is how some compounds turned out for pIC50.
compound="CO[C@H]1CC[C@H](NC(=O)c2cc(-n3ccnc3)nc(N)n2)CC1 [compound 21]" subject_of_test="hCD38 Enzyme (Homo sapiens, UniProt P28907)" recorded_number=8.10
compound="O=C(Nc1ccc(F)c(F)c1)c1cc(C(F)(F)F)nc(-n2ccnc2)n1 [compound 173]" subject_of_test="hCD38 Enzyme (Homo sapiens, UniProt P28907)" recorded_number=8.17

P = C[C@H]1CC[C@H](NC(=O)c2cc(OC3COC3)nc(-n3ccnc3)n2)CC1 [Compound 150]
Q = O=C(Nc1cncnc1)c1cc(C(F)(F)F)cc(-n2ccnc2)n1 [compound 192]
Prompt: Form field 'greater pIC50' accepts P or Q ; which applies? Label of pick, please.
Completion: Q

* * *

Target: hCD38 Enzyme (Homo sapiens)
Assay: CD38 hydrolase enzymatic assay
Conditions: rhCD38, ε-NAD substrate, 25° C., point reading time 20 mins; read-out: hCD38 Enzyme inhibition IC50
Metric: IC50 (nM)

Look over these answered cases.
compound="O=C(Nc1ccc(F)cc1)c1cc(C(F)(F)F)nc(-n2ccnc2)n1 [compound 172]" metric=IC50 recorded_number=8.2
compound="CO[C@H]1CC[C@H](NC(=O)c2nc(-n3ccnc3)ccc2N)CC1 [compound 60]" metric=IC50 recorded_number=17
compound="O=C(NC1CCOCC1)c1cc(C(F)(F)F)nc(-n2ccnc2)n1 [compound 163]" metric=IC50 recorded_number=92
compound="O=C(Nc1cnc(OCCO)nc1)c1cc(C(F)(F)F)nc(-n2ccnc2)n1 [compound 193]" metric=IC50 recorded_number=11

a = Nc1ncc(-n2ccnc2)nc1C(=O)NC1CCCCC1 [compound 42]
b = O=C(Nc1cc(F)cc(N2CCNCC2)c1)c1cc(C(F)(F)F)nc(-n2ccnc2)n1 [compound 175]
c = O=C(Nc1cccc(F)c1)c1cc(N2CCCCC2)nc(-n2ccnc2)n1 [compound 101]
Prompt: # sort list by recorded IC50, greatest to least Present the labels in the sequence the task asks for.
Completion: b, c, a
(b: 68 nM, c: 17 nM, a: 11 nM)
